Data provenance is patent US20240254130A1.

MEASUREMENT PROTOCOL: Solubility of Compound (I) free base in solvents at 50° C.
Format: physicochemical
CONDITION INFO: organic solvent or mixture, ACN:water (7:3 vol.), sample 82-2, read-out: Solubility (mg/mL) at 50° C.
ASSAY READOUT: solubility (mg/mL)
API: value field is a number in mg/mL; no unit string.

Lookup: Please report the recorded solubility for C[C@](N)(c1ccc(F)cc1)c1cnc(N2CCN(c3ncnn4cc(-c5cnn(CCO)c5)cc34)CC2)nc1 .
Found: 8.6
